Here the recorded TEAD4 ΔTm is given for each entry.
# tested.target: TEAD4 (Homo sapiens)
# procedure.summary: Thermal shift assay TEAD4
# Type: binding
Number in °C, nothing else.

| molecule | unit.abbreviation | TEAD4 ΔTm |
| --- | --- | --- |
| Cc1ccc2c(c1)c(C1C[C@H]1C(=O)O)cn2-c1ccc(C(F)(F)F)cc1 (mixture of isomers) [Example 21] | °C | 9.3 |
| CNC(=O)[C@@H]1CC1c1cc(-c2ccc(C(F)(F)F)cc2)cc2c1=NC(C)N=2 (mixture of isomers) [Example 22] | °C | 5.7 |
| Cn1cc2cc(Oc3ccc(C(F)(F)F)cn3)cc([C@H]3C[C@@H]3C(=O)N3CC(O)C3)c2n1 (single isomer, unassigned) [Example 88b] | °C | 9.7 |
| Cn1cc2cc(Oc3ccc(C(F)(F)F)cc3)cc(C3C[C@H]3C(=O)N3CCS(=O)(=O)CC3)c2n1 (single isomer, unassigned) [Example 110] | °C | 4.1 |
| CN(C)C(=O)[C@@H]1C[C@H]1c1cc(Oc2ccc(C(F)(F)F)c(F)c2)cc2cn(C)nc12 (single isomer, unassigned) [Example 141] | °C | 12.0 |

// TEAD4 ΔTm value for [2H]C([2H])([2H])NC(=O)[C@H]1CC1c1cc(Oc2ccc(C(F)(F)F)cc2)cc2cn(C)nc12 (single isomer, unassigned) [Example 53] : 10.5

----------
# tested.target: TEAD4 (Homo sapiens, UniProt Q15561)
# Sequence (Q15561 whole entry, species assumed): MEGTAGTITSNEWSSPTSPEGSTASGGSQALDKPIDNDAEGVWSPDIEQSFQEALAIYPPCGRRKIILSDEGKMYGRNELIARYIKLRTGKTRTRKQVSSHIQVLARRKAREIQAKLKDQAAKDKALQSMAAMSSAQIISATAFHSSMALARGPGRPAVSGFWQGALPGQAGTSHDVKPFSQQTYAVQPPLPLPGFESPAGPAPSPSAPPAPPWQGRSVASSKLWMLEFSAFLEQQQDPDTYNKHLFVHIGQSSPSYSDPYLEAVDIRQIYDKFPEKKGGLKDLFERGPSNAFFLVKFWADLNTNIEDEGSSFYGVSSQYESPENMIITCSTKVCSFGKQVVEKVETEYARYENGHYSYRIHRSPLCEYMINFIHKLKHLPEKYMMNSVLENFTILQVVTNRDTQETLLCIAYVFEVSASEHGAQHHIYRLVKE
# procedure.summary: Thermal shift assay TEAD4
# Assay type: binding
With a cut-off of 8 °C, any TEAD4 ΔTm strictly below it is called y; any TEAD4 ΔTm meeting it or above is called n.

Illustrative cases are given below, each with its answer.
| molecule | group |
| --- | --- |
| Cn1cc2cc(Oc3ccc(C(F)F)cc3)cc([C@H]3C[C@@H]3C(=O)N3CC(O)C3)c2n1 (single isomer, unassigned) [Example 89b] | n |
| Cn1cc2cc(Oc3ccc(C(F)(F)F)cc3)cc([C@@H]3C[C@H]3C(=O)N3CC4CC(C3)N4)c2n1 (single isomer, unassigned) | n |
| CNC(=O)[C@@H]1C[C@H]1c1cc(Oc2ccc(C(F)(F)F)cc2)cc2cn(C)nc12 (single isomer, unassigned) [Example 34a] | y |

Query :: Please check: TEAD4 ΔTm for [2H]C([2H])([2H])n1cc2cc(Oc3ccc(C(F)(F)F)cc3)cc([C@H]3C[C@@H]3C(=O)NC)c2n1 (single isomer, unassigned) [Example 76b] , strictly under 8 °C or not?
Result :: n

Query :: Please check: TEAD4 ΔTm for CNC(=O)[C@@H]1CC1c1cc(Oc2ccc(C(F)(F)F)cc2)cc2cn(C3CC3)nc12 (mixture of isomers) , strictly under 8 °C or not?
Result :: y

----------
Here the recorded TEAD4 ΔTm is given for each entry.
# tested.target: UniProt Q15561
# procedure.summary: Thermal shift assay TEAD4
# Type: binding
Number in °C, nothing else.

Look over these answered cases.
| compound | unit.abbreviation | TEAD4 ΔTm |
| --- | --- | --- |
| CC(=O)NS(=O)(=O)CCc1cc(-c2ccc(C(F)(F)F)cc2)cc2cn(C)nc12 | °C | 11.2 |
| Cn1cc2cc(Oc3ccc(C(F)(F)F)cc3)cc(C3C[C@H]3C(=O)N3C[C@H]4C[C@@H]3C[C@@H]4O)c2n1 (single isomer, unassigned) [Example 103c] | °C | 10.7 |
| CN1CCC2(CN(C(=O)[C@@H]3CC3c3cc(Oc4ccc(C(F)(F)F)cc4)cc4cn(C)nc34)C2)C1=O (single isomer, unassigned) | °C | 3.5 |
| Cn1cc2cc(Oc3ccc(C(F)(F)F)cc3)cc([C@H]3C[C@@H]3C(=O)O)c2n1 (single isomer, unassigned) [Example 16b] | °C | 12.5 |
| CNS(=O)(=O)[C@@H]1CC1c1cc(Oc2ccc(C(F)(F)F)cc2)cc2cn(C)nc12 (mixture of isomers) | °C | 9.1 |
| Cn1cc2cc(Oc3ccc(C(F)(F)F)cc3)cc(C3C[C@H]3C(=O)N3CCC[C@@H]3C#N)c2n1 (single isomer, unassigned) | °C | 4.7 |

// TEAD4 ΔTm value for CNC(=O)[C@@H]1CC1c1cc(Oc2ccc(C(F)(F)F)cc2)cc2cn(C(F)F)nc12 (mixture of isomers) : 7.7

// TEAD4 ΔTm value for CNC(=O)[C@@H]1CC1c1cc(OCc2ccc(C(F)(F)F)cc2)cc2c1cnn2C (mixture of isomers) : 0.1

// TEAD4 ΔTm value for Cn1cc2cc(Oc3ccc(C(F)(F)F)cc3)cc(C3C[C@H]3C(=O)N3C[C@@H]4C[C@H]3C[C@@H]4O)c2n1 (single isomer, unassigned) [Example 103f] : 11.1

// TEAD4 ΔTm value for Cn1cc2cc(Oc3cc(F)ccc3C(F)(F)F)cc([C@@H]3C[C@H]3C(=O)N3CC(O)C3)c2n1 (single isomer, unassigned) : 4.9

----------
# tested.target: TEAD3 (Homo sapiens, UniProt Q99594)
# Sequence (Q99594 whole entry, species assumed): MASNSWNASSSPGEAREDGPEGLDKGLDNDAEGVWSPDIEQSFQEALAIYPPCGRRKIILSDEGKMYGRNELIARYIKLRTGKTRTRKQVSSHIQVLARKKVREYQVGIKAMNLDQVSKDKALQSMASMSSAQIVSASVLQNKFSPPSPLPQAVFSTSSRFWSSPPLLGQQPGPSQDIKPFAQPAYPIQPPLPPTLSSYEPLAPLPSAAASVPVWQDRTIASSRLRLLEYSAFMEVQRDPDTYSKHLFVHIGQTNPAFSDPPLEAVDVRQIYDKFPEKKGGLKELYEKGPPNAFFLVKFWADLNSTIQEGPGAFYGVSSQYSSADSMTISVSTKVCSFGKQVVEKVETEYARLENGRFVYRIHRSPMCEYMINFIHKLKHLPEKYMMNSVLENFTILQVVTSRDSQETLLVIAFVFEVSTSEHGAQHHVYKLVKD
# procedure.summary: Thermal shift assay TEAD3
# Type: binding
measure: TEAD3 ΔTm (°C)
Number in °C, nothing else.

Look over these answered cases.
| compound | experimental.value |
| --- | --- |
| Cn1cc2cc(Oc3ccc(C(F)(F)F)c(F)c3)cc([C@@H]3C[C@H]3C(=O)N3CC(O)C3)c2n1 (single isomer, unassigned) | 13.9 |
| Cn1cc2cc(Oc3ccc(C(F)(F)F)cc3)cc([C@@H]3C[C@H]3C(=O)N3CC4CC3CN4)c2n1 (single isomer, unassigned) | 1.8 |
| Cn1cc2cc(Oc3ccc(C(F)(F)F)cc3)cc(C3C[C@H]3C(=O)N3C4COCC3CC(O)C4)c2n1 (single isomer, unassigned) [Example 116a] | 1.8 |
| CNC(=O)[C@@H]1CC1c1cc(OC2CC3(C2)CC(F)(F)C3)cc2cn(C)nc12 (mixture of isomers) | 0.7 |
| Cn1cc2cc(Oc3ccc(C(F)(F)F)cc3)cc(C3C[C@H]3C(=O)N3CCC4(COC4)C3)c2n1 (single isomer, unassigned) | 0 |

Let us move to another entry and its TEAD3 ΔTm.
// TEAD3 ΔTm value for CNS(=O)(=O)/C=C/c1cc(-c2ccc(C(F)(F)F)cc2)cc2c1cnn2C : 0.7

----------
# tested.target: TEAD1 (Homo sapiens)
# Sequence (P28347 whole entry, species assumed): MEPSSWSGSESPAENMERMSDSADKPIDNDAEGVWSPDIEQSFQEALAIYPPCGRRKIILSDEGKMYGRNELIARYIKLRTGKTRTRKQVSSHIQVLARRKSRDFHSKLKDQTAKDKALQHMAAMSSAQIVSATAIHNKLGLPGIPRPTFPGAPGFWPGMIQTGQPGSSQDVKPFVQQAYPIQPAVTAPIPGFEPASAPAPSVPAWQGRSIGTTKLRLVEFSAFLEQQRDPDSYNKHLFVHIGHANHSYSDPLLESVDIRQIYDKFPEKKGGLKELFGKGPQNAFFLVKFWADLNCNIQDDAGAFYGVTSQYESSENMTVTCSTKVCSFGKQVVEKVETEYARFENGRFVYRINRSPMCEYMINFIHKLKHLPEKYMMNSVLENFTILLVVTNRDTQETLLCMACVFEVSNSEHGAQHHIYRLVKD
# procedure.summary: Thermal shift assay TEAD1
# Assay type: binding
Here the recorded TEAD1 ΔTm is given for each entry.
Number in °C, nothing else.

Look over these answered cases.
| molecule | tested.target | experimental.value |
| --- | --- | --- |
| Cn1cc2cc(Oc3ccc(C(F)(F)F)c(F)c3)cc([C@@H]3C[C@H]3C(=O)N3CC(O)C3)c2n1 (single isomer, unassigned) | TEAD1 (Homo sapiens) | 10.9 |
| Cn1cc2cc(Oc3ccc(C(F)(F)F)cc3)cc(C3C[C@H]3C(=O)N3C[C@@H]4C[C@H]3C[C@H]4O)c2n1 (single isomer, unassigned) [Example 103d] | TEAD1 (Homo sapiens) | 9.5 |
| Cn1cc2cc(Oc3ccc(C(F)(F)F)cc3)cc([C@@H]3C[C@H]3C(=O)N3CC4CC3CN4)c2n1 (single isomer, unassigned) | TEAD1 (Homo sapiens) | 5.9 |
| Cn1ncc2c(C3C[C@H]3C(=O)O)cc(-c3ccc(C(F)(F)F)cc3)cc21 (mixture of isomers) | TEAD1 (Homo sapiens) | 5.7 |
| COCCNC(=O)[C@@H]1C[C@H]1c1cc(-c2ccc(C(F)(F)F)cc2)cc2c1cnn2C (racemic) | TEAD1 (Homo sapiens) | 1.6 |

Let us move to another entry and its TEAD1 ΔTm.
// TEAD1 ΔTm value for Cn1cc2cc(Oc3ccc(F)c(F)c3)cc([C@@H]3C[C@H]3C(=O)N3CC(O)C3)c2n1 (single isomer, unassigned) [Example 90a] : −0.2

----------
# tested.target: TEAD4 (Homo sapiens, UniProt Q15561)
# procedure.summary: Thermal shift assay TEAD4
# Format: binding
Lab note: compare TEAD4 ΔTm against 6 °C. Equal or greater, write class 1. Smaller, write class 0.

| compound | group |
| --- | --- |
| Cn1cc2cc(Oc3ccc(C(F)(F)F)cc3)cc(C3C[C@H]3C(=O)N3C[C@H]4C[C@@H]3C[C@H]4O)c2n1 (single isomer, unassigned) [Example 103e] | class 1 |

Query :: # bool: TEAD4 ΔTm of Cn1cc2cc(Oc3ccc(C(F)(F)F)cc3)cc([C@@H]3C[C@H]3C(=O)N3CCO[C@@H](CO)C3)c2n1 (single isomer, unassigned) [Example 62] >= 6 °C
Result :: class 1

Query :: # bool: TEAD4 ΔTm of CC(C)NC(=O)[C@@H]1C[C@H]1c1cc(-c2ccc(C(F)(F)F)cc2)cc2c1cnn2C (racemic) [Example 27] >= 6 °C
Result :: class 0

Query :: # bool: TEAD4 ΔTm of Cn1cc2cc(Oc3ccc(C(F)(F)F)cc3)cc([C@@H]3C[C@H]3C(=O)N3CCC34CC(O)C4)c2n1 (single isomer, unassigned) [Example 136] >= 6 °C
Result :: class 1
